B1: BBSome complex member BBS1 (Homo sapiens), Q8NFJ9 (parent)
chain: MAAASSSDSDACGAESNEANSKWLDAHYDPMANIHTFSACLALADLHGDGEYKLVVGDLGPGGQQPRLKVLKGPLVMTESPLPALPAAAATFLMEQHEPRTPALALASGPCVYVYKNLRPYFKFSLPQLPPNPLEQDLWNQAKEDRIDPLTLKEMLESIRETAEEPLSIQSLRFLQLELSEMEAFVNQHKSNSIKRQTVITTMTTLKKNLADEDAVSCLVLGTENKELLVLDPEAFTILAKMSLPSVPVFLEVSGQFDVEFRLAAACRNGNIYILRRDSKHPKYCIELSAQPVGLIRVHKVLVVGSTQDSLHGFTHKGKKLWTVQMPAAILTMNLLEQHSRGLQAVMAGLANGEVRIYRDKALLNVIHTPDAVTSLCFGRYGREDNTLIMTTRGGGLIIKILKRTAVFVEGGSEVGPPPAQAMKLNVPRKTRLYVDQTLREREAGTAMHRAFQTDLYLLRLRAARAYLQALESSLSPLSTTAREPLKLHAVVQGLGPTFKLTLHLQNTSTTRPVLGLLVCFLYNEALYSLPRAFFKVPLLVPGLNYPLETFVESLSNKGISDIIKVLVLREGQSAPLLSAHVNMPGSEGLAAA
partner: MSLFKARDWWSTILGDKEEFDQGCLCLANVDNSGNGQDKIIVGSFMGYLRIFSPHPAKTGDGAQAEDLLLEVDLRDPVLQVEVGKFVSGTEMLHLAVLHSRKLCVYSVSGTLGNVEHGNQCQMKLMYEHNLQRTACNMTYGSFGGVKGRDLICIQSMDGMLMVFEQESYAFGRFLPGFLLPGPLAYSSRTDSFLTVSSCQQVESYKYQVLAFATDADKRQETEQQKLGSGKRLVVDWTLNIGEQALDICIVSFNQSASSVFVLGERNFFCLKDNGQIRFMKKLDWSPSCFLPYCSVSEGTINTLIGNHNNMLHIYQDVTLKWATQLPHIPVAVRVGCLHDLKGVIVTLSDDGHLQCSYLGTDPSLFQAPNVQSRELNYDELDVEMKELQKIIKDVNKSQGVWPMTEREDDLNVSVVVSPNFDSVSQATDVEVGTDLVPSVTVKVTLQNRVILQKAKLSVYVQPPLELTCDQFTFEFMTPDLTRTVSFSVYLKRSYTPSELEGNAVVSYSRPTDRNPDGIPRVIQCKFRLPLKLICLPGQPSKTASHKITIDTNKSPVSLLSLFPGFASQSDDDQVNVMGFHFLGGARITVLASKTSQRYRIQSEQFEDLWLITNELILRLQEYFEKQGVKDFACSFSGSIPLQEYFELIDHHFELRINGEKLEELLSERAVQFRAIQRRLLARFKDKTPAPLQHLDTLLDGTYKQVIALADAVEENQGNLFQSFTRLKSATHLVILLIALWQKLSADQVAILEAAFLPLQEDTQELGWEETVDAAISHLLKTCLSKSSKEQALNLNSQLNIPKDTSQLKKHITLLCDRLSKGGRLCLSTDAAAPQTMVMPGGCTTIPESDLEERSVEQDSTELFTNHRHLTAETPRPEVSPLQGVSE

Variants of: B1
Settings: with pthb1_human BBS9, Q3SYG4

| mutant | effect of a mutation on the interaction |
| --- | --- |
| I563E | with no effect |
| T508A | with no effect |
| N557K | with no effect |
| R429A | with no effect |
| R483A | with no effect |
| V582A | with no effect |
| L548K | with no effect |
| Q453A | with no effect |
| Y457K | with no effect |
| S479A | with no effect |
| T550E | with no effect |
| Q506A | with no effect |
| L433A | with no effect |
| R570A | with no effect |
| E525A | with no effect |
| M423K | with no effect |
| F535A | with no effect |
| A482K | with no effect |
| L468K | with no effect |
| L425E | with no effect |
| N557E | with no effect |
| T446E | with no effect |
| A466K | with no effect |
| M423E | with no effect |
| E525K | with no effect |
| L495E | with no effect |
| R450A | with no effect |
| P538K | with no effect |
| L458K | with no effect |
| R429K | with no effect |
| S509E | with no effect |
| T446A | with no effect |
| E571K | with no effect |
| A422E | with no effect |
| L527A | with no effect |
| N583E | with no effect |
| G445K | with no effect |
| R532A | with no effect |

Provenance of the data: IntAct's records for PubMed 29039417
